src = ChEMBL document CHEMBL4007409

Tested on: Brain
assay_procedure: Drug uptake in Sprague-Dawley rat brain at 1 mg/kg, po administered as single dose by LC-MS/MS analysis
Assay type: ADME, organism-based
condition: in vivo, read-out: Drug uptake
assay_endpoint: concentration
Express the reported value numerically, then name its unit.

Query concentration for Cc1cc([C@@H]2CN(C(=O)c3ccc(F)c(Br)c3)CC(F)(F)C2)n2ncnc2n1
66 nM

---

assay_procedure: Clearance in Sprague-Dawley rat plasma at 1 mg/kg, iv administered as single dose by LC-MS/MS analysis
Type: ADME, organism-based
assay_endpoint: clearance
Quick note: unit goes after the number.

Using known records, supply clearance for Cc1cc([C@@H]2CN(C(=O)c3ccc(F)c(Br)c3)CC(F)(F)C2)n2ncnc2n1
32.8 mL/min/kg
